The reported measurements were obtained from the supplement of paper PMC9170038.

- Test system: MS2 coat protein
- assay_summary: apparent KD of MS2 coat protein; designed switch direction (-1 OFF switch, 1 ON switch): -1; higher = weaker reporter binding
- condition_description: Eterna round: R95; input ligand: microRNA oligo, concentration not stated

[
  {
    "residue_codes": "GAAAAGAGAGGAUAUACAAGAAGAAAAGAAAAGAAAAGAAAACAUGAGGAUCACCCAUGUAGAAGGCUCAAAAG [Default title] (puzzle: Exclusion 2)",
    "apparent KD of MS2 coat protein, nM": 12.7
  },
  {
    "residue_codes": "CUGAGCAGACGGAGAUCCAACAUGAGGAUCACCCAUGUCUCAAAAGCUUUCUGCUCGUCUUAUCCUCCUCUGUUCUC [Engeonrati] (puzzle: Sensor v3, turn-off variant 1)",
    "apparent KD of MS2 coat protein, nM": 205
  },
  {
    "residue_codes": "CUGGUCCGAGGAUAUAUGAUGUGAAACAUGAGGAUCACCCAUGUAAUAUUAUGGAAGAAAAUAGAAGGCGGACUAG [Mat - Exclusion 5 - JL mod - D38] (puzzle: Exclusion 5)",
    "apparent KD of MS2 coat protein, nM": 64.3
  },
  {
    "residue_codes": "AAAUGCAAGCAAAGAUCUUACAUGAGGAUCACCCAUGUGCUCGUCUUAUAAAGUACUAUCACGAAAGUGAUAGUACA [Sensor 3, v1 - 28] (puzzle: Sensor v3, turn-off variant 1)",
    "apparent KD of MS2 coat protein, nM": 90.9
  },
  {
    "residue_codes": "GAGUGGCAAGGAUAUACAGAGGAGAGGAAGGCAAGAGGUGGACAUGAGGAUCACCCAUGUAGAAGGUGCAGAGG [JR_Exclu2_Sub025] (puzzle: Exclusion 2)",
    "apparent KD of MS2 coat protein, nM": 134
  }
]
